- TEST: self-splicing fitness, log relative to wild type (ln ratio); higher = more splicing; Tetrahymena group I intron in knt gene, E. coli kanamycin selection, DiMSum; sequences stand for … in CUCUCU…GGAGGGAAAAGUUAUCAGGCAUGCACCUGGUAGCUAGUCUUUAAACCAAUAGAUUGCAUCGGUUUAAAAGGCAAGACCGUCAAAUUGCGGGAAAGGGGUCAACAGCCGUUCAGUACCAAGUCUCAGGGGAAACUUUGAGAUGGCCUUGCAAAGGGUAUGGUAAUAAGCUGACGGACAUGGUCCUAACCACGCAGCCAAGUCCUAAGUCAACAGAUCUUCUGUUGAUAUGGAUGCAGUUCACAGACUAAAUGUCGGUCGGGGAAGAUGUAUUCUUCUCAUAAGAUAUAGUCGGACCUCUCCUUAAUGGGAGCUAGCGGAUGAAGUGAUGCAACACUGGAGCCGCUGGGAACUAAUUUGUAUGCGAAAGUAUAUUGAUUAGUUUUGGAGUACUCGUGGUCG;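 note: selection with 25 µg/mL kanamycin versus none on LB agar overnight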
- CONDITION_INFO: 37 °C
Assign self-splicing fitness (ln) to each entry below.

// lookup self-splicing fitness (ln) for AAGGAGCAAUAUUACGAGCA
-0.592

// lookup self-splicing fitness (ln) for AAAGAGCAAUAUUACGCUAC
-2.81

// lookup self-splicing fitness (ln) for GUGGAGCAAUAUUACGGCAU
-2.62

// lookup self-splicing fitness (ln) for UAAGAGCAAUAUUACGCAUU
-2.32

// lookup self-splicing fitness (ln) for GUUGAGCAAUAUUACGGGUG
-2.85

// lookup self-splicing fitness (ln) for CUGAAGCAAUAUUACGCUUA
-2.13

// lookup self-splicing fitness (ln) for UGACAGCAAUAUUACGACCG
0.698

// lookup self-splicing fitness (ln) for CAGAAGCAAUAUUACGCUAG
-1.73

// lookup self-splicing fitness (ln) for ACGUAGCAAUAUUACGCUCC
-0.259

// lookup self-splicing fitness (ln) for CACCAGCAAUAUUACGGCGU
-0.886

// lookup self-splicing fitness (ln) for UUUUAGCAAUAUUACGUAGA
-0.71

// lookup self-splicing fitness (ln) for GCUCAGCAAUAUUACGUUAU
-0.166

// lookup self-splicing fitness (ln) for UCUAAGCAAUAUUACGCGCA
-0.561

// lookup self-splicing fitness (ln) for CAUAAGCAAUAUUACGGAGA
-3.12

// lookup self-splicing fitness (ln) for UACCAGCAAUAUUACGGGCG
-0.277

// lookup self-splicing fitness (ln) for AACCAGCAAUAUUACGAUAU
-0.0726

###

- TEST: self-splicing fitness, log relative to wild type (ln ratio); higher = more splicing; Tetrahymena group I intron in knt gene, E. coli kanamycin selection, DiMSum; sequences stand for … in CUCUCU…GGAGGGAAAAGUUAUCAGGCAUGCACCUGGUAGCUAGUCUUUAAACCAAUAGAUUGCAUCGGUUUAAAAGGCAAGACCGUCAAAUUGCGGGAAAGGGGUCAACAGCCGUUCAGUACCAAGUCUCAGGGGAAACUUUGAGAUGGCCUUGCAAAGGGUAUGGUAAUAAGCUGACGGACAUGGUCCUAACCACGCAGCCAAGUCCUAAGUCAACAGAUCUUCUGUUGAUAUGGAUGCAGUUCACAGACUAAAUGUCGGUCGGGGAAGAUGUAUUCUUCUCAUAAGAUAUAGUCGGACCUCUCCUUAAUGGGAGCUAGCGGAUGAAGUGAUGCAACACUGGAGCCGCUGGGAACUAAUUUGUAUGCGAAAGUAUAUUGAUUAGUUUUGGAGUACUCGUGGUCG
- CONDITION_INFO: 37 °C
ASSAY_ENDPOINT: self-splicing fitness (ln)
Answer as a number with no unit attached.

// lookup self-splicing fitness (ln) for UCUAAGCAAUAUUACGCUAC
-1.73

// lookup self-splicing fitness (ln) for CAUAAGCAAUAUUACGGCUC
-1.88

// lookup self-splicing fitness (ln) for GACCAGCAAUAUUACGACGA
0.15

// lookup self-splicing fitness (ln) for GCACAGCAAUAUUACGGUUG
-1.02

// lookup self-splicing fitness (ln) for GGUCAGCAAUAUUACGUAAG
-0.22

// lookup self-splicing fitness (ln) for UACGAGCAAUAUUACGCAAG
-2.03

// lookup self-splicing fitness (ln) for UAAUAGCAAUAUUACGUUAG
-1.13

// lookup self-splicing fitness (ln) for ACGGAGCAAUAUUACGUCUG
0.013

###

- TEST: self-splicing fitness, log relative to wild type (ln ratio); higher = more splicing; Tetrahymena group I intron in knt gene, E. coli kanamycin selection, DiMSum; sequences stand for … in CUCUCU…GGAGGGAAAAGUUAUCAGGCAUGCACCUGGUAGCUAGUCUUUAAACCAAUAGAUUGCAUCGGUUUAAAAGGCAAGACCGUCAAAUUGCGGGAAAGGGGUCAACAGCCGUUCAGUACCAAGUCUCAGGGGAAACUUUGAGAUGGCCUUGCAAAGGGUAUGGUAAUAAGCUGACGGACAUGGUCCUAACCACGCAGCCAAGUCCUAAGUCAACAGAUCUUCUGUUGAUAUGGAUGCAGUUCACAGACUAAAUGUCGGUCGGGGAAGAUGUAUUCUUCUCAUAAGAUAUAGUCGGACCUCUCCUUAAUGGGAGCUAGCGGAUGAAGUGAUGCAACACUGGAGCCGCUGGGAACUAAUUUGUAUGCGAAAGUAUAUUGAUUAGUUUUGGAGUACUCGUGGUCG
- CONDITION_INFO: 30 °C
ASSAY_ENDPOINT: self-splicing fitness (ln)
Answer as a number with no unit attached.

// lookup self-splicing fitness (ln) for AAGUAGCAAUAUUACGCCAG
-2.64

// lookup self-splicing fitness (ln) for GCACAGCAAUAUUACGGGGC
-3.43

// lookup self-splicing fitness (ln) for UGAGAGCAAUAUUACGCGGC
-3.04

// lookup self-splicing fitness (ln) for CAUAAGCAAUAUUACGGCUC
-2.88

// lookup self-splicing fitness (ln) for CGACAGCAAUAUUACGGGUC
-4.52

// lookup self-splicing fitness (ln) for CAAAAGCAAUAUUACGUCCC
-2.65

// lookup self-splicing fitness (ln) for GCGAAGCAAUAUUACGUCUU
-2.56

// lookup self-splicing fitness (ln) for CAUGAGCAAUAUUACGUGCU
-3.6

// lookup self-splicing fitness (ln) for GAAAAGCAAUAUUACGUGUU
-2.35

// lookup self-splicing fitness (ln) for CCGUAGCAAUAUUACGUCUC
-3.43

// lookup self-splicing fitness (ln) for CGCGAGCAAUAUUACGUGGU
-3.27

// lookup self-splicing fitness (ln) for GAGUAGCAAUAUUACGAAAC
-2.82

// lookup self-splicing fitness (ln) for GGGAAGCAAUAUUACGACGU
-0.169

// lookup self-splicing fitness (ln) for UUCUAGCAAUAUUACGUUUA
-1.43

// lookup self-splicing fitness (ln) for CGGUAGCAAUAUUACGUAAA
-1.14

// lookup self-splicing fitness (ln) for CCGUAGCAAUAUUACGCCUC
-1.88

// lookup self-splicing fitness (ln) for AACCAGCAAUAUUACGAUAU
-0.891

// lookup self-splicing fitness (ln) for CAGUAGCAAUAUUACGACGU
-1.15

// lookup self-splicing fitness (ln) for CAACAGCAAUAUUACGUCAC
-3.96

// lookup self-splicing fitness (ln) for AGAGAGCAAUAUUACGUGGG
-3.01

// lookup self-splicing fitness (ln) for GUUCAGCAAUAUUACGGCCA
-0.626

// lookup self-splicing fitness (ln) for AGAAAGCAAUAUUACGCGUA
-1.71

// lookup self-splicing fitness (ln) for GACGAGCAAUAUUACGGACA
-1.57

// lookup self-splicing fitness (ln) for AAGAAGCAAUAUUACGUUCU
-2.55

// lookup self-splicing fitness (ln) for GUACAGCAAUAUUACGCGUA
-3.44

// lookup self-splicing fitness (ln) for UCAUAGCAAUAUUACGUGUU
-3.81

// lookup self-splicing fitness (ln) for GGUGAGCAAUAUUACGGAUU
-0.567

// lookup self-splicing fitness (ln) for UUGAAGCAAUAUUACGCCCG
0.0378

// lookup self-splicing fitness (ln) for GGUAAGCAAUAUUACGGUGA
-1.45

// lookup self-splicing fitness (ln) for CGAGAGCAAUAUUACGAGAC
-2.64

// lookup self-splicing fitness (ln) for UAUCAGCAAUAUUACGUACG
-0.641

// lookup self-splicing fitness (ln) for ACAGAGCAAUAUUACGUCUC
-3.77

// lookup self-splicing fitness (ln) for GUUAAGCAAUAUUACGGUUG
-3.12

// lookup self-splicing fitness (ln) for AGGGAGCAAUAUUACGUAAG
-3.17

###

- TEST: self-splicing fitness, log relative to wild type (ln ratio); higher = more splicing; Tetrahymena group I intron in knt gene, E. coli kanamycin selection, DiMSum; sequences stand for … in CUCUCU…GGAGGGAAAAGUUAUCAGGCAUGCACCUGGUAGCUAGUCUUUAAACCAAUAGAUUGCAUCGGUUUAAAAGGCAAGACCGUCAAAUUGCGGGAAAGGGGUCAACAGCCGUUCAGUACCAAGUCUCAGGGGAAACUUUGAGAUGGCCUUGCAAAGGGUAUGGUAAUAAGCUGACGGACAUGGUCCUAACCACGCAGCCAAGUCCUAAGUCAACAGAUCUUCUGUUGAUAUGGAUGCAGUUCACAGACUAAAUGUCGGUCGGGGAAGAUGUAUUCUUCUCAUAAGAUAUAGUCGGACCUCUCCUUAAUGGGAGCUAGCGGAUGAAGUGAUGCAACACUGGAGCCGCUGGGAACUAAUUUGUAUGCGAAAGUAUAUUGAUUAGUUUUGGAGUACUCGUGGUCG
- CONDITION_INFO: 37 °C
Assign self-splicing fitness (ln) to each entry below.
Answer as a number with no unit attached.

// lookup self-splicing fitness (ln) for CAACAGCAAUAUUACGACUG
0.0876

// lookup self-splicing fitness (ln) for CAGUAGCAAUAUUACGGGUU
-1.82

// lookup self-splicing fitness (ln) for UAUGAGCAAUAUUACGAUUC
-1.6

// lookup self-splicing fitness (ln) for AGGCAGCAAUAUUACGUGAU
-0.983

// lookup self-splicing fitness (ln) for GAUUAGCAAUAUUACGUCUU
-0.732

// lookup self-splicing fitness (ln) for UAUAAGCAAUAUUACGGAGG
-1.67

// lookup self-splicing fitness (ln) for UAGCAGCAAUAUUACGAUCG
-0.0334

// lookup self-splicing fitness (ln) for CGUGAGCAAUAUUACGUUUG
-1.5

// lookup self-splicing fitness (ln) for CGUAAGCAAUAUUACGACUA
-1.96

// lookup self-splicing fitness (ln) for GCUGAGCAAUAUUACGUCUG
-0.981

// lookup self-splicing fitness (ln) for UGAAAGCAAUAUUACGCUUG
-1.32

// lookup self-splicing fitness (ln) for ACGCAGCAAUAUUACGGGGU
-2.34

// lookup self-splicing fitness (ln) for AAAGAGCAAUAUUACGCGUU
-1.32

// lookup self-splicing fitness (ln) for UAAAAGCAAUAUUACGCCCU
0.457

// lookup self-splicing fitness (ln) for AGCAAGCAAUAUUACGAUAA
0.308

// lookup self-splicing fitness (ln) for GGUUAGCAAUAUUACGUGAC
-2.33
